IC50 values by entry
test system: amastigotes of T. cruzi; assay: Anti-amastigote effect in infected peritoneal macrophages; format: cell-based; conditions: Trypanosoma cruzi, Peritoneal macrophage, in Mus musculus; T. cruzi Y strain, intracellular amastigotes in BALB/c peritoneal Mø, 0.5-5.0 µg mL−1; ≥ = maximum concentration allowed by trypan blue exclusion assay
Write the value in µM as a bare number.

Solved cases below.
INSERT INTO measurements (compound, target_under_test, unit_of_measure, measurement) VALUES
  ('S=c1[nH]nc(/C=C/C=C/c2ccc3c(c2)OCO3)n1C1CCCCC1', 'amastigotes of T. cruzi', 'µM', 8.87),
  ('FC(F)(F)c1ccc(-n2c(/C=C/C=C/c3ccc4c(c3)OCO4)n[nH]c2=S)cc1', 'amastigotes of T. cruzi', 'µM', 9.59),
  ('CC(C)n1c(/C=C/C=C/c2ccc3c(c2)OCO3)n[nH]c1=S', 'amastigotes of T. cruzi', 'µM', 11.1);

Let us move to another entry and its IC50.
Form field: reported IC50 of O=C(Cn1ccnc1[N+](=O)[O-])NCc1ccccc1 [Benznidazole, benznidazole, reference compound] 2.5

====

reported-property: melting point

Form field: reported melting point of `CCn1c(/C=C/C=C/c2ccc3c(c2)OCO3)n[nH]c1=S` 208 to 209 °C

Same question, `FC(F)(F)c1ccc(-n2c(/C=C/C=C/c3ccc4c(c3)OCO4)n[nH]c2=S)cc1` this time 232 to 233 °C

Same question, `CC(C)(C)n1c(/C=C/C=C/c2ccc3c(c2)OCO3)n[nH]c1=S` this time 183 to 184 °C

====

reported-property: melting point

Solved cases below.
INSERT INTO measurements (chemical_structure, measurement) VALUES
  ('CCCCCCn1c(/C=C/C=C/c2ccc3c(c2)OCO3)n[nH]c1=S', '124 to 125 °C'),
  ('COc1cc(-n2c(/C=C/C=C/c3ccc4c(c3)OCO4)n[nH]c2=S)cc(OC)c1OC', '242 to 243 °C'),
  ('CC(C)n1c(/C=C/C=C/c2ccc3c(c2)OCO3)n[nH]c1=S', '210 to 211 °C'),
  ('Cn1c(/C=C/C=C/c2ccc3c(c2)OCO3)n[nH]c1=S', '220 to 222 °C'),
  ('CCCCn1c(/C=C/C=C/c2ccc3c(c2)OCO3)n[nH]c1=S', '173 to 174 °C');

Form field: reported melting point of `S=c1[nH]nc(/C=C/C=C/c2ccc3c(c2)OCO3)n1-c1ccccc1` 244 to 245 °C

Same question, `COc1cccc(-n2c(/C=C/C=C/c3ccc4c(c3)OCO4)n[nH]c2=S)c1` this time 248 to 249 °C

Same question, `CSc1ccc(-n2c(/C=C/C=C/c3ccc4c(c3)OCO4)n[nH]c2=S)cc1` this time 209 to 211 °C

Same question, `S=c1[nH]nc(/C=C/C=C/c2ccc3c(c2)OCO3)n1Cc1ccccc1` this time 187 to 188 °C

Same question, `S=c1[nH]nc(/C=C/C=C/c2ccc3c(c2)OCO3)n1C1CCCCC1` this time 192 to 194 °C

====

test system: epimastigote form of Y strain T. cruzi; assay: Anti-epimastigote effect (direct count of live epimastigotes after 7 days); format: cell-based, Trypanosoma cruzi; details: mean of triplicate
pIC50 values by entry
Please express pIC50 as -log10 of the molar concentration.

Solved cases below.
INSERT INTO results (chemical_structure, target_under_test, measurement) VALUES
  ('FC(F)(F)c1ccc(-n2c(/C=C/C=C/c3ccc4c(c3)OCO4)n[nH]c2=S)cc1', 'epimastigote form of Y strain T. cruzi', 4.73),
  ('S=c1[nH]nc(/C=C/C=C/c2ccc3c(c2)OCO3)n1C1CCCCC1', 'epimastigote form of Y strain T. cruzi', 4.74),
  ('CCCCCCn1c(/C=C/C=C/c2ccc3c(c2)OCO3)n[nH]c1=S', 'epimastigote form of Y strain T. cruzi', 4.81);

Report pIC50 for `CC(C)n1c(/C=C/C=C/c2ccc3c(c2)OCO3)n[nH]c1=S` tested on epimastigote form of Y strain T. cruzi. 4.57
